- target_of_assay: Human vitronectin receptor (αv β3) (Homo sapiens, UniProt P05106+P06756)
- Construct: purified from human placenta
- method_description: Solid Phase Receptor Assay, purified αv β3 (vitronectin receptor) competition with biotinylated vitronectin
- settings: 1 nM biotinylated vitronectin, 2 h competition, room temperature, R = H, read-out: VnR/IC50
Where a name gives a salt, the structure may show the parent alone.
# label = fulfilled if IC50 < 500 nM else not fulfilled

Solved entries:
Threshold test, IC50 < 500 nM: N=C(N)NCC(CC(=O)NCC(=O)NC(CC(=O)O)c1cccnc1)c1ccccc1 (racemic) [Example 6, bistrifluoroacetate salt]
fulfilled

Is the reported IC50 for N=C(N)NCCCCC(=O)NCC(=O)NC(CC(=O)O)c1cccnc1 (centres unmarked) [Example 1, bistrifluoroacetate salt] strictly below 500 nM?
fulfilled

Is the reported IC50 for N=C(N)NCCCC(=O)NCC(=O)NC(CC(=O)O)c1cccnc1 (racemic) [Example 3, bistrifluoroacetate salt] strictly below 500 nM?
fulfilled

Please let me know if N=C(N)NCCCCCC(=O)NCC(=O)NC(CC(=O)O)c1cccnc1 (racemic) [Example 4, bistrifluoroacetate salt] shows IC50 below 500 nM.
fulfilled

Further cases:
Regarding N=C(N)NCCCC(=O)NCCC(=O)NC(CC(=O)O)c1cccnc1 (racemic) [Example 5, bistrifluoroacetate salt] , kindly confirm whether its IC50 is beneath 500 nM.
not fulfilled
